Assay Overview: Comparative tests for stability of the crystalline form E and other crystalline forms (storage, total impurity and content)
Assay type: physicochemical
Applied Conditions: Freezing −20° C., month 3
Observable: Total impurity (%)

Compound	Numeric Value
C[C@@H](O)[C@H]1C(=O)N2C(C(=O)[O-])=C(S[C@@H]3CN[C@H](C(=O)Nc4cccc(C(=O)O)c4)C3)[C@H](C)[C@H]12.[Na+] (relative stereo) [Crystalline form E]	0.8
C[C@@H](O)[C@H]1C(=O)N2C(C(=O)[O-])=C(S[C@@H]3CN[C@H](C(=O)Nc4cccc(C(=O)O)c4)C3)[C@H](C)[C@H]12.[Na+] [Crystalline form A, ertapenem sodium]	0.7
C[C@@H](O)[C@H]1C(=O)N2C(C(=O)[O-])=C(S[C@@H]3CN[C@H](C(=O)Nc4cccc(C(=O)O)c4)C3)[C@H](C)[C@H]12.[Na+] [Crystalline form D, ertapenem sodium]	1.1
C[C@@H](O)[C@H]1C(=O)N2C(C(=O)[O-])=C(S[C@@H]3CN[C@H](C(=O)Nc4cccc(C(=O)O)c4)C3)[C@H](C)[C@H]12.[Na+] [Crystalline form C, ertapenem sodium]	0.8

(P) C[C@@H](O)[C@H]1C(=O)N2C(C(=O)[O-])=C(S[C@@H]3CN[C@H](C(=O)Nc4cccc(C(=O)O)c4)C3)[C@H](C)[C@H]12.[Na+] [Crystalline form B, ertapenem sodium]
(Q) C[C@@H](O)[C@H]1C(=O)N2C(C(=O)[O-])=C(S[C@@H]3CN[C@H](C(=O)Nc4cccc(C(=O)O)c4)C3)[C@H](C)[C@H]12.[Na+] [Amorphous, ertapenem sodium]
Prompt: Which shows the larger Total impurity value: P or Q ? Answer with the label corresponding to your selection.
Response: Q
